// IC50 collected for human factor IXa (Homo sapiens (Human))

Parameters: items (list). Returns: IC50 for each item.
1. Nc1noc2c(N3CCC(NC(=O)c4ccc(-n5cnnc5)cc4Cl)C3)cccc12 (stereo not drawn) [Example 1]
2. Cn1nc(-c2ccc(C(=O)N[C@@H]3CCN(c4ncc(Cl)c5c(N)noc45)C3)c(Cl)c2)ccc1=O [Example 40]
3. Cc1ncn(-c2cnc(C(=O)N[C@@H]3CCN(c4ncc(Cl)c5c(N)noc45)C3)c(Cl)c2)n1 [Example 52]

≤ 100 nM
≤ 100 nM
100 to 1000 nM

====

Reported values: IC50 for human factor IXa (Homo sapiens (Human)), one per item.

Consider the reported IC50 for these molecules:
# molecule, IC50
rows = [
    ("Nc1noc2c(N3CC[C@@H](NC(=O)c4ccc(-c5cnccn5)cc4Cl)C3)ncc(Cl)c12 [Example 33]", "≤ 100 nM"),
    ("COc1ncc(-c2ccc(C(=O)N[C@@H]3CCN(c4ncc(Cl)c5c(N)noc45)C3)c(Cl)c2)cn1 [Example 21]", "≤ 100 nM"),
    ("Nc1noc2c(N3CC[C@@H](NC(=O)c4ccc(-n5cnc(CCO)c5)cc4Cl)C3)ncc(Cl)c12 [Example 27]", "≤ 100 nM"),
    ("Nc1noc2c(N3CC[C@@H](NC(=O)c4ccc(-n5cncn5)cc4F)C3)ccc(Cl)c12 [Example 18]", "100 to 1000 nM"),
    ("Nc1nsc2c(N3CCC(NC(=O)c4c(Cl)cc(-n5cnnc5)cc4Cl)C3)cccc12 (stereo not drawn) [Example 4]", "100 to 1000 nM"),
    ("Cn1cc(-c2ccc(C(=O)N[C@@H]3CCN(c4ncc(Cl)c5c(N)noc45)C3)c(Cl)c2)cnc1=O [Example 44]", "≤ 100 nM"),
    ("Cc1cc(-n2cncn2)ccc1C(=O)N[C@@H]1CCN(c2ccc(Cl)c3c(N)noc23)C1 [Example 19]", "100 to 1000 nM"),
    ("N#Cc1ncc(-c2ccc(C(=O)N[C@@H]3CCN(c4ncc(Cl)c5c(N)noc45)C3)c(Cl)c2)cn1 [Example 22]", "≤ 100 nM"),
]

Could you tell me IC50 for each of these molecules? They are listed below.
1. Nc1noc2c(N3CC[C@@H](NC(=O)c4ccc(-n5cnnc5)cc4Cl)C3)ccc(F)c12 [Example 13]
2. Nc1noc2c(N3CC[C@@H](NC(=O)c4ccc(-n5cn[nH]c5=O)cc4Cl)C3)ncc(Cl)c12 [Example 46]
3. Nc1noc2c(N3CC[C@@H](NC(=O)c4ccc(-n5cnnc5)cc4Cl)C3)ccc(Cl)c12 [Example 9]
4. Cc1ncn(-c2ccc(C(=O)N[C@@H]3CCN(c4ncc(Cl)c5c(N)noc45)C3)c(Cl)c2)n1 [Example 11]

1. 100 to 1000 nM
2. ≤ 100 nM
3. ≤ 100 nM
4. ≤ 100 nM
